From: PubChem BioAssay (NCI)

# Test system: CAKI-1 renal
# Protocol: NCI tumour cell line growth inhibition, 48 h
Listing of recorded TGI by entry.
Observation type: TGI (µM)

- CN1CCN(CCNc2ccc(CO)c3sc4ccccc4c(=O)c23)CC1: 19.8
- C[S+](C)CC(=O)c1ccc2c(c1)Sc1ccccc1O2: 15
- CC(C)(CC#N)c1cc(CC(C)(C)c2cc(CC(C)(C)c3cc(C(C)(C)C4(C)OCCO4)no3)no2)no1: 87.2
- COC1CC(CC2CCC(C)C(C(C)C(=O)O)O2)OC2(OC(C)(C3CCC(C)(C4OC(C5OC(O)(CO)C(C)CC5C)CC4C)O3)CC2C)C1C (centres undefined): 38.3
- C/C(=N\Nc1nc2ccccc2o1)c1cc(C)ncn1: 42.5

---

# Tested on: CAKI-1 renal
# Protocol: NCI tumour cell line growth inhibition, 48 h; in the data active means GI50 below about 0.43 µM; inactive means the rest
Labels: 1.0 = active, 0.0 = inactive

- CC(C)(C)OC(=O)CN1CCc2c(sc3ncnc(N/N=C/c4cccc5ccccc45)c23)C1: 0.0
- O=C(CNc1ncco1)Nc1ccc(S(=O)(=O)c2ccc(NC(=O)CNc3ncco3)cc2)cc1: 0.0
- O=C1c2ccn(CCCCN3CCCCC3)c2C(=O)c2c1c(O)c1ccccc1c2O: 0.0
- CO[C@@]12C[C@H]3[C@@H]([C@@H](O)[C@@H](OC(=O)/C=C/c4ccccc4)[C@@]4(O)C(C)(C)CCC[C@]34C)[C@@H](C)C1=CC(=O)O2: 0.0
- COc1ccc(/C=C/C(=O)c2cc3c(N)c(C(=O)Nc4ccccc4C)sc3nc2C)cc1: 1.0
- CC(=O)/C=C/C1=C(c2cccs2)c2ccccc2CC1: 0.0

---

Listing of recorded TGI by entry.
# System: SNB-75 CNS
# Protocol: NCI tumour cell line growth inhibition, 48 h
Observation type: TGI

• COc1cc2c([C@@H](OC(=O)c3ccccc3)c3ccc4c(c3)OCO4)nccc2c(OC)c1OC = > 100 µM
• COc1ccc(C(=O)C(C(=O)C(=O)Nc2nccs2)c2ccc(OC)cc2)cc1 (stereo not given) = > 100 µM
• O=C1c2ccn(CCCCN3CCCCC3)c2C(=O)c2c1c(O)c1ccccc1c2O = > 73.8 µM
• CC(/C=N\NC(=S)N(C)C)=N/NC(=S)N(C)C = > 100 µM
• CC(C)C1OC(=O)/C=C/C=C/C=C/C=C/C=C/CC(O)C(C)C(O)CC(O)CC(O)CC(O)CC(O)CC(O)CC(O)/C=C/C1C (stereo not given) = > 100 µM
• O=S(=O)(O)c1cc(N=Nc2cc(S(=O)(=O)O)c3cccnc3c2O)ccc1/C=C/c1ccc(N=Nc2cc(S(=O)(=O)O)c3cccnc3c2O)cc1S(=O)(=O)O = > 100 µM
• NC(=S)N/N=c1\cc(C(=O)Nc2ccc([N+](=O)[O-])cc2[N+](=O)[O-])oc2ccccc12 = > 100 µM
• CCNc1nc2c(ncn2C2CC(O)C(COP(=O)(O)O)O2)c(=O)[nH]1 (stereo not given) = > 100 µM
• CCCN1C(=O)CSC1=Nc1ccc2cc3ccc(N=C4SCC(=O)N4CCC)cc3nc2c1 = > 100 µM
• CC(=O)C(=[N+]=[N-])C(=O)OCCOC(=O)C(=[N+]=[N-])C(C)=O = > 1 µM

---

Listing of recorded TGI by entry.
# System: SN12C renal
# Protocol: NCI tumour cell line growth inhibition, 48 h
Observation type: TGI

• O=C1/C(=C\c2ccc(F)cc2)CCOc2c1ccc1ccccc21 = > 89.2 µM
• Cc1ccc(NC(=O)C2C(=O)N(c3ccc(C)c(C)c3)C(=O)/C2=N\NC(N)=S)cc1C (configuration not stated) = > 100 µM
• COC(OC)C1OC(CO)C(n2cc(F)c(=O)[nH]c2=O)C1O (configuration not stated) = > 100 µM
• C=CCC(N[C@H](CO)c1ccccc1)c1cn(S(=O)(=O)c2ccc(C)cc2)c2ccccc12 (some centres not stated) = 32.2 µM
• O=C(Nc1cccc(O)c1)c1cccc(NC2=C(Cl)C(=O)N(Cc3ccccc3)C2=O)c1 = 22.1 µM
• C#C[C@]1(O)CC[C@H]2[C@@H]3CCC4=C/C(=N\OCCN(CC)CC)CC[C@]4(C)[C@H]3CC[C@@]21C = 46.8 µM
• COC(=O)c1ccccc1C1CN=NC12Cc1cc(C)c(C)cc1C2=O (configuration not stated) = > 100 µM
• COc1cc2c(c(OC)c1OC)C(=O)[C@H](Br)[C@H]2NC(=O)NCCCl = > 100 µM
• CCCCCCCCCCCC(=O)c1c(O)cccc1O = 34.7 µM
• O=c1c2ccccc2[nH]c(=S)n1-c1ccc(N=Nc2cccc3cc(O)ccc23)cc1 = > 100 µM
• COc1cc(C2=NN(c3ccc(S(N)(=O)=O)cc3)C(c3ccc(Cl)cc3)C2)cc(OC)c1OC (configuration not stated) = > 100 µM
• Cc1[nH]nc2c1C(=O)C=C(N(CCO)c1ccccc1)C2=O = > 100 µM
• COc1cc(NCC2COc3c(ccc(OC)c3OC)C2=O)c([N+](=O)[O-])cc1OC (configuration not stated) = > 100 µM
• CN(C)CC1(Cc2ccccc2)CCC(Cc2ccccc2)C1=O (configuration not stated) = 23.9 µM
• CN(C)CCc1ccnc2nc(-c3ccc4ccccc4c3)cn12 = 75.9 µM
• COC(=O)C1N=CSCC1(C)O (configuration not stated) = > 100 µM
• C/C1=C\C/C=C(\C)[C@H]2CC(CC/C(C)=C/CC1)[C@](C)(C=O)O2 = > 100 µM

---

Listing of recorded TGI by entry.
# System: NCI/ADR-RES ovarian
# Protocol: NCI tumour cell line growth inhibition, 48 h
Observation type: TGI

• C/C1=C/C(=O)O[C@@H]2C[C@@H](CC[C@H](C)/C=C\C=C\CC1)O[C@@](OCCc1ccccc1)([C@@H]1CSC(=O)N1)C2 = > 17.5 µM
• [C-]#[N+][C@]12C(=O)[C@H](CCC1(C)C)C(C)(C)[C@H]1C(=O)N(C)c3cccc2c31 = > 100 µM
• O=C(NCCNCCNC(=O)C(F)(F)F)C(F)(F)F = > 100 µM
• O=c1oc2ccccc2c(O)c1C(c1ccc2c(c1)Cc1ccccc1-2)c1c(O)c2ccccc2oc1=O = > 100 µM
• CC1CN=C(NS(=O)(=O)c2cc(C(=O)Nc3ccc(F)cc3)c(Cl)cc2S)NN1 (stereo not given) = > 100 µM

---

# System: NCI-H23 lung
# Protocol: NCI tumour cell line growth inhibition, 48 h
Listing of recorded TGI by entry.
Observation type: TGI

* c1cc[c]([Sn]([S]c2cccc3cccnc23)([S]c2cccc3cccnc23)[c]2ccccc2)cc1 | 0.46 µM
* COc1cc(NCC2COc3c(ccc(OC)c3OC)C2=O)c([N+](=O)[O-])cc1OC (stereo not drawn) | > 100 µM
* CCC1(N=[N+]=[N-])C(=O)c2ccccc2N(c2ccccc2)C1=O (stereo not drawn) | > 100 µM

---

# Test system: NCI-H460 lung
# Protocol: NCI tumour cell line growth inhibition, 48 h
Observation type: TGI

• CC1SC(c2c(Cl)cccc2Cl)N(NC(=O)C(O)c2ccccc2)C1=O (configuration not stated) = > 100 µM
• CN(/N=C\c1ccc2ccccc2c1)C1=NCCN1 = 30.6 µM
• CC(=O)Oc1cc(C)c(OC(C)=O)c2c1[C@H]1CC[C@]3(C)[C@@H](OC(C)=O)CC[C@H]3[C@@H]1CC2 = 33.1 µM
• CC1C=C[C@H](Sc2ccccc2)CC[C@@]1(C)O (some centres not stated) = > 100 µM
• CO[C@@]12C[C@H]3[C@@H]([C@@H](O)[C@@H](OC(=O)/C=C/c4ccccc4)[C@@]4(O)C(C)(C)CCC[C@]34C)[C@@H](C)C1=CC(=O)O2 = 82.9 µM
• S=C1N=C(Cl)/C(=C\c2ccco2)N1 = > 100 µM
• CC(C)c1cccc(C(=O)NCCN(C)C)c1[N+](=O)[O-] = > 100 µM
• CCOC(=O)N[C@H]1CCc2c(Br)c(OC)c(OC)c(OC)c2-c2ccc(SC)c(=O)cc21 = 1.61 µM
• COc1cc(NCC2COc3c(ccc(OC)c3OC)C2=O)c([N+](=O)[O-])cc1OC (configuration not stated) = > 100 µM
• Cc1cc(=O)oc2c(C)c3oc(CBr)c(Br)c3cc12 = 49 µM
• COc1ccc(NS(=O)c2ccccc2OC)cc1 (configuration not stated) = > 100 µM
• CCOC(=O)/C(C[C@H]1OC(C)(C)O[C@@H]1[C@H]1COC(C)(C)O1)=N/O = > 100 µM
• C/C(CC(=O)NC1=CC=C(NC(=O)C/C(C)=N\Nc2ccccc2)CC1)=N/Nc1ccccc1 = > 100 µM
• Brc1ccc2c(c1)C1C(CO2)C(c2ccccc2)=NN1c1ccccc1 (configuration not stated) = > 100 µM
• Cc1nc(Nc2ccccc2)sc1C(=O)NNc1ccc([N+](=O)[O-])cc1[N+](=O)[O-] = > 100 µM
• O=c1c2ccccc2[nH]c(=S)n1-c1ccc(N=Nc2cccc3cc(O)ccc23)cc1 = > 100 µM
• CC(=O)NC(CCCNC(=O)NCCCl)C(=O)NCc1ccccc1 (configuration not stated) = > 100 µM
• CNC(=O)CNC(=O)C(Cc1ccc(NC(=O)CCCCC(C)=O)cc1)NC(=O)C(CCC(=O)OCc1ccccc1)NC(=O)OC(C)(C)C (configuration not stated) = > 100 µM
• COc1cc2ccc1OCc1cccc(n1)COc1ccc(cc1OC)C=Nc1ccc(cc1)-c1ccc(cc1)N=C2 = > 100 µM
• CCOP(=O)(OCC)[C@]12C[C@@H](C)C=C[C@H]1COC2=O = > 100 µM
• NC(=S)N/N=C\c1nccc2c(N)cccc12 = 2.04 µM
• O=C(NNS(=O)(=O)c1ccc(F)cc1)c1cccnc1Nc1ccc(Cl)cc1Cl = > 100 µM
• C1=C(c2ccccc2)SC=C(c2ccccc2)S1 = > 100 µM
• CC(C)(C)OC(=O)CN1CCc2c(sc3ncnc(N/N=C/c4cccc5ccccc45)c23)C1 = 6.22 µM
• O=C(Nc1ccccc1O)c1ccc(CNC(=O)c2sccc2Nc2ccnc(C(F)(F)F)c2)cc1 = 21.4 µM
• O=C(Nc1cccc(O)c1)c1cccc(NC2=C(Cl)C(=O)N(Cc3ccccc3)C2=O)c1 = > 100 µM
• CCOC(=O)c1[nH]c(CN(C)Cc2[nH]c(C(=O)OCC)c(C)c2C(=O)OCc2ccccc2)c(C(=O)OCc2ccccc2)c1C = 62.2 µM
